Peptide text beside a SMILES is read from it. * marks the point of attachment. X1 = CC(C)C[C@H](NC(=O)[C@H]1O[C@@H]1C(=O)*)C(=O)N1CCC[C@H]1C(=O)N[C@H](C(N)=O)[C@@H](C)O; X2 = CC(C)C[C@H](NC(=O)[C@@H]1O[C@H]1C(=O)*)C(=O)N1CCC[C@H]1C(=O)N[C@H](C(N)=O)[C@@H](C)O; X8 = CC(C)[C@H](NC(=O)[C@H]1O[C@@H]1C(=O)*)C(=O)N1CCC[C@H]1C(=O)N[C@H](C(N)=O)[C@@H](C)O
Heads up, these molecules all have Ki values measured for Cathepsin B (Homo sapiens, UniProt P07858).

molecule	measurement.name	experimental.value
CC(C)C[C@H](NC(=O)[C@@H]1O[C@H]1C(=O)N[C@@H](CO)C(=O)N1CCC[C@H]1C(=O)N1CCC[C@H]1C(=O)N1CCC[C@H]1C(=O)N[C@@H](CO)C(N)=O)C(=O)N1CCC[C@H]1C(=O)N[C@H](C(N)=O)[C@@H](C)O (X2-SPPPS-NH2)	Ki	> 50 µM
CC(C)C[C@H](NC(=O)[C@H]1O[C@@H]1C(=O)N[C@@H](CO)C(=O)N[C@@H](CCC(N)=O)C(=O)N1CCC[C@H]1C(=O)N1CCC[C@H]1C(=O)N[C@@H](CO)C(N)=O)C(=O)N1CCC[C@H]1C(=O)N[C@H](C(N)=O)[C@@H](C)O (X1-SQPPS-NH2)	Ki	> 100 µM
CC(C)[C@H](NC(=O)[C@H]1O[C@@H]1C(=O)N[C@@H](CO)C(=O)N1CCC[C@H]1C(=O)N1CCC[C@H]1C(=O)N1CCC[C@H]1C(=O)N[C@@H](CO)C(N)=O)C(=O)N1CCC[C@H]1C(=O)N[C@H](C(N)=O)[C@@H](C)O (X8-SPPPS-NH2)	Ki	> 100 µM

Consider now this further molecule.
Would you kindly share the measured Ki for CC(C)C[C@H](NC(=O)[C@H]1O[C@@H]1C(=O)N[C@@H](CO)C(=O)N[C@@H](CO)C(=O)N1CCC[C@H]1C(=O)N1CCC[C@H]1C(=O)N[C@@H](CO)C(N)=O)C(=O)N1CCC[C@H]1C(=O)N[C@H](C(N)=O)[C@@H](C)O (X1-SSPPS-NH2) ?
> 100 µM

* * *

experiment: Retention time of the compound by RP-HPLC analysis; format: physicochemical
Peptide text beside a SMILES is read from it. * marks the point of attachment. X4 = CC(C)C[C@H](NC(=O)[C@@H]1O[C@H]1C(=O)*)C(=O)N[C@@H](Cc1c[nH]c2ccccc12)C(=O)N[C@H](C(N)=O)[C@@H](C)O; X9 = C[C@@H](O)[C@H](NC(=O)[C@@H]1CCCN1C(=O)[C@@H](NC(=O)[C@@H]1O[C@H]1C(=O)*)[C@@H](C)O)C(N)=O; X1 = CC(C)C[C@H](NC(=O)[C@H]1O[C@@H]1C(=O)*)C(=O)N1CCC[C@H]1C(=O)N[C@H](C(N)=O)[C@@H](C)O; X6 = CC(C)C[C@H](NC(=O)[C@H]1O[C@@H]1C(=O)*)C(=O)N[C@@H](CO)C(=O)N[C@H](C(N)=O)[C@@H](C)O; X7 = CC(C)[C@H](NC(=O)[C@@H]1O[C@H]1C(=O)*)C(=O)N1CCC[C@H]1C(=O)N[C@H](C(N)=O)[C@@H](C)O; X8 = CC(C)[C@H](NC(=O)[C@H]1O[C@@H]1C(=O)*)C(=O)N1CCC[C@H]1C(=O)N[C@H](C(N)=O)[C@@H](C)O
Overview of reported Retention_time across a group of molecules:
Respond numerically; units are min and should not be typed.

molecule	unit.string	Retention_time
CC(C)C[C@H](NC(=O)[C@H]1O[C@@H]1C(=O)N[C@@H](CO)C(=O)N[C@@H](CCC(N)=O)C(=O)N1CCC[C@H]1C(=O)N1CCC[C@H]1C(=O)N[C@@H](CO)C(N)=O)C(=O)N1CCC[C@H]1C(=O)N[C@H](C(N)=O)[C@@H](C)O (X1-SQPPS-NH2)	min	10.8
CC(C)C[C@H](NC(=O)[C@H]1O[C@@H]1C(=O)N[C@@H](CO)C(=O)N1CCC[C@H]1C(=O)N1CCC[C@H]1C(=O)N1CCC[C@H]1C(=O)N[C@@H](CO)C(N)=O)C(=O)N[C@@H](CO)C(=O)N[C@H](C(N)=O)[C@@H](C)O (X6-SPPPS-NH2)	min	10.3
CC(C)C[C@H](NC(=O)[C@H]1O[C@@H]1C(=O)N[C@@H](CO)C(=O)N1CCC[C@H]1C(=O)N1CCC[C@H]1C(=O)N1CCC[C@H]1C(=O)N[C@@H](CO)C(N)=O)C(=O)N1CCC[C@H]1C(=O)N[C@H](C(N)=O)[C@@H](C)O (X1-SPPPS-NH2)	min	12.5
C[C@@H](O)[C@H](NC(=O)[C@@H]1CCCN1C(=O)[C@@H](NC(=O)[C@@H]1O[C@H]1C(=O)N[C@@H](CO)C(=O)N1CCC[C@H]1C(=O)N1CCC[C@H]1C(=O)N1CCC[C@H]1C(=O)N[C@@H](CO)C(N)=O)[C@@H](C)O)C(N)=O (X9-SPPPS-NH2)	min	9.1
CC(C)C[C@H](NC(=O)[C@@H]1O[C@H]1C(=O)N[C@@H](CO)C(=O)N1CCC[C@H]1C(=O)N1CCC[C@H]1C(=O)N1CCC[C@H]1C(=O)N[C@@H](CO)C(N)=O)C(=O)N[C@@H](Cc1c[nH]c2ccccc12)C(=O)N[C@H](C(N)=O)[C@@H](C)O (X4-SPPPS-NH2)	min	13.2
CC(C)C[C@H](NC(=O)[C@H]1O[C@@H]1C(=O)N[C@@H](CO)C(=O)N[C@@H](CO)C(=O)N1CCC[C@H]1C(=O)N1CCC[C@H]1C(=O)N[C@@H](CO)C(N)=O)C(=O)N1CCC[C@H]1C(=O)N[C@H](C(N)=O)[C@@H](C)O (X1-SSPPS-NH2)	min	12
CC(C)[C@H](NC(=O)[C@@H]1O[C@H]1C(=O)N[C@@H](CO)C(=O)N1CCC[C@H]1C(=O)N1CCC[C@H]1C(=O)N1CCC[C@H]1C(=O)N[C@@H](CO)C(N)=O)C(=O)N1CCC[C@H]1C(=O)N[C@H](C(N)=O)[C@@H](C)O (X7-SPPPS-NH2)	min	10.2

Could you share which Retention_time value was measured for CC(C)[C@H](NC(=O)[C@H]1O[C@@H]1C(=O)N[C@@H](CO)C(=O)N1CCC[C@H]1C(=O)N1CCC[C@H]1C(=O)N1CCC[C@H]1C(=O)N[C@@H](CO)C(N)=O)C(=O)N1CCC[C@H]1C(=O)N[C@H](C(N)=O)[C@@H](C)O (X8-SPPPS-NH2) ?
10.7

* * *

molecular target: Calpain-1 catalytic subunit (Homo sapiens, UniProt P07384); assay: Inhibition of calpain-1 (unknown origin) using Suc-LY-AMC as substrate by fluorescence assay
Sequence (P07384 whole entry): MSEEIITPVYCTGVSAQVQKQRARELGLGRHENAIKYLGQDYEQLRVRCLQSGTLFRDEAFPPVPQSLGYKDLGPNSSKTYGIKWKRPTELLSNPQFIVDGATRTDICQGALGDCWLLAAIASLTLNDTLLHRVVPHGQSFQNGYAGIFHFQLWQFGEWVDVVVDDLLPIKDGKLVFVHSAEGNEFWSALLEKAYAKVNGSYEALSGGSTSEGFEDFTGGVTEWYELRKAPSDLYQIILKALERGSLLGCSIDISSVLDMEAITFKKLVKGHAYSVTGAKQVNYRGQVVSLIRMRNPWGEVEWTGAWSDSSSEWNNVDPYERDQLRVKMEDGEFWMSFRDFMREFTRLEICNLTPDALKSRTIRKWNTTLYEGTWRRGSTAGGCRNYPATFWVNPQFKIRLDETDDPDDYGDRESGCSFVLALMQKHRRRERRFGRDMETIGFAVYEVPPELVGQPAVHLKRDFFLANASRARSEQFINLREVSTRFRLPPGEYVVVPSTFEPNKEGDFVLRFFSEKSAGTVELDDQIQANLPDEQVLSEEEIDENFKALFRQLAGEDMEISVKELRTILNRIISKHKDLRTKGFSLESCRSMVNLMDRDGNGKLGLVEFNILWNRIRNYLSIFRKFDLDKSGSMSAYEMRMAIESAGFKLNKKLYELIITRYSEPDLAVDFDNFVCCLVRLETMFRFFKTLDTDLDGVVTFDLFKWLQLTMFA
pKi: −log10 of the molar value. Peptide text beside a SMILES is read from it. * marks the point of attachment. X9 = C[C@@H](O)[C@H](NC(=O)[C@@H]1CCCN1C(=O)[C@@H](NC(=O)[C@@H]1O[C@H]1C(=O)*)[C@@H](C)O)C(N)=O; X1 = CC(C)C[C@H](NC(=O)[C@H]1O[C@@H]1C(=O)*)C(=O)N1CCC[C@H]1C(=O)N[C@H](C(N)=O)[C@@H](C)O; X2 = CC(C)C[C@H](NC(=O)[C@@H]1O[C@H]1C(=O)*)C(=O)N1CCC[C@H]1C(=O)N[C@H](C(N)=O)[C@@H](C)O; X7 = CC(C)[C@H](NC(=O)[C@@H]1O[C@H]1C(=O)*)C(=O)N1CCC[C@H]1C(=O)N[C@H](C(N)=O)[C@@H](C)O
measurement.name: pKi

molecule	pKi
CC(C)[C@H](NC(=O)[C@@H]1O[C@H]1C(=O)N[C@@H](CO)C(=O)N1CCC[C@H]1C(=O)N1CCC[C@H]1C(=O)N1CCC[C@H]1C(=O)N[C@@H](CO)C(N)=O)C(=O)N1CCC[C@H]1C(=O)N[C@H](C(N)=O)[C@@H](C)O (X7-SPPPS-NH2)	< 4.30
C[C@@H](O)[C@H](NC(=O)[C@@H]1CCCN1C(=O)[C@@H](NC(=O)[C@@H]1O[C@H]1C(=O)N[C@@H](CO)C(=O)N1CCC[C@H]1C(=O)N1CCC[C@H]1C(=O)N1CCC[C@H]1C(=O)N[C@@H](CO)C(N)=O)[C@@H](C)O)C(N)=O (X9-SPPPS-NH2)	< 4.00
CC(C)C[C@H](NC(=O)[C@@H]1O[C@H]1C(=O)N[C@@H](CO)C(=O)N[C@@H](CO)C(=O)N1CCC[C@H]1C(=O)N1CCC[C@H]1C(=O)N[C@@H](CO)C(N)=O)C(=O)N1CCC[C@H]1C(=O)N[C@H](C(N)=O)[C@@H](C)O (X2-SSPPS-NH2)	< 4.00

Given the entry CC(C)C[C@H](NC(=O)[C@H]1O[C@@H]1C(=O)N[C@@H](CO)C(=O)N[C@@H](CO)C(=O)N1CCC[C@H]1C(=O)N1CCC[C@H]1C(=O)N[C@@H](CO)C(N)=O)C(=O)N1CCC[C@H]1C(=O)N[C@H](C(N)=O)[C@@H](C)O (X1-SSPPS-NH2) , report its measured pKi.
< 4.00
